- System name: DDR1 kinase (Homo sapiens, UniProt Q08345)
- Sequence (Q08345 19-876 isoform Q08345-2 limits assumed): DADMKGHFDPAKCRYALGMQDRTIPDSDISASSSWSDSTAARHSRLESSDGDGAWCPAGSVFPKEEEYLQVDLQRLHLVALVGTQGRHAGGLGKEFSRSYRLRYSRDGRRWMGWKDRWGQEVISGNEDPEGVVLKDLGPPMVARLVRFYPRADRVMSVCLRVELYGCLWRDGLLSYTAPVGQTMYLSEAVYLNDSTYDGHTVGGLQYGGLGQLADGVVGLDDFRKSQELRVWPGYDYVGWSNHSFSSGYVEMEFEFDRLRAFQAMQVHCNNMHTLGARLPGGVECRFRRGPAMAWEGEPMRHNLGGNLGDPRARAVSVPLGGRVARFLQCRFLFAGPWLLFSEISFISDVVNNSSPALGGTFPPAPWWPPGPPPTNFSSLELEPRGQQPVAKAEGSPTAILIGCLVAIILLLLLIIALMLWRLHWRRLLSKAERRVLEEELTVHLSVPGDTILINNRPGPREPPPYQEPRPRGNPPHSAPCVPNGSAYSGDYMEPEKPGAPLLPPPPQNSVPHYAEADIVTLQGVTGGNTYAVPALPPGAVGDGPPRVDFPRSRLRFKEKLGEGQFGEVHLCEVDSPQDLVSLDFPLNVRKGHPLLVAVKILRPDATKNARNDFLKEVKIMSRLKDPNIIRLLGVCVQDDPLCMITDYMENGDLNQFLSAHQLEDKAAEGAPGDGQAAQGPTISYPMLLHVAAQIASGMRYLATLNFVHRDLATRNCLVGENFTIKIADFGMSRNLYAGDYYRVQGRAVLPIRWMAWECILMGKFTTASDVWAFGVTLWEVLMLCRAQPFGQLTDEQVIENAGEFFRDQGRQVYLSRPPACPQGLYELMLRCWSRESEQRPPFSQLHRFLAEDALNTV
- Measurement notes: Evaluation of DDR1 kinase inhibition (LANCE Ultra TR-FRET kinase assay)
- Assay type: biochemical
- Set-up: purchased Carna Biosciences 08-113
- Protocol conditions: DDR1 protein 0.5 nM, LANCE Ultra ULight-poly GAT substrate, 2 hours at room temperature, duplicate; read-out: DDR-1 IC50
Test readout: IC50 (nM)

(a) CC1(NC(=O)Cn2nc(C3CN(C(=O)c4ccnc(N)c4)C3)c3ccccc32)CCOCC1
(b) CCN(CC)C(=O)Cn1nc(C2CN(C(=O)c3cc(N)ncc3F)C2)c2ccccc21
(c) Nc1cc(C(=O)N2CC(c3nn(Cc4noc(-c5ccccc5F)n4)c4cccc(F)c34)C2)ccn1
(d) CN(C(=O)Cn1nc(C2CN(C(=O)c3cc(N)ncc3F)C2)c2ccccc21)C1CCOCC1
Query: Ranking field: IC50; order: falling. Reply format: the labels, ordered as requested.
Response: a, d, b, c
(a: 280 nM, d: 22 nM, b: 15 nM, c: 1.9 nM)

====

- System name: DDR1 kinase (Homo sapiens)
- Measurement notes: Evaluation of DDR1 kinase inhibition (LANCE Ultra TR-FRET kinase assay)
- Type: biochemical
- Design: purchased Carna Biosciences 08-113
- Protocol conditions: DDR1 protein 0.5 nM, LANCE Ultra ULight-poly GAT substrate, 2 hours at room temperature, duplicate; read-out: DDR-1 IC50
pIC50: −log10 of the molar value. Structures can show the parent of a compound that is named as a salt.
Test readout: pIC50

These solved cases illustrate the format of a correct answer.
Nc1cc(C(=O)N2CC(c3nn(CC(=O)N4CCO[C@@H](C(F)(F)F)C4)c4ccccc34)C2)c(F)cn1 ... 8.89
Nc1cc(C(=O)N2CC(c3nn(CC(=O)NCC(F)(F)F)c4ccc(F)c(Br)c34)C2)ccn1 [Compound E-70, hydrochloride] ... 8.77
Nc1cc(C(=O)N2CC(c3nn(Cc4nc(C(F)(F)F)no4)c4cccc(F)c34)C2)ccn1 [Compound E-115, hydrochloride] ... 8.07

(P) Nc1nccc(C(=O)N2CC(c3nn(CC(=O)N4CCC[C@H]4C(F)(F)F)c4cc(F)c(F)cc34)C2)n1
(Q) Cc1c(C(=O)N2CC(c3nn(CC(=O)N4CCO[C@@H](C(F)(F)F)C4)c4cncc(F)c34)C2)ccnc1N
(R) Nc1cc(C(=O)N2CC(c3nn(CC(=O)N4CCC[C@H]4CO)c4ccccc34)C2)ccn1
Query: List by increasing pIC50. Reply format: the labels, ordered as requested.
Response: R, Q, P

====

- System name: DDR1 kinase (Homo sapiens, UniProt Q08345)
- Measurement notes: Evaluation of DDR1 kinase inhibition (LANCE Ultra TR-FRET kinase assay)
- Assay type: biochemical
- Parameters: purchased Carna Biosciences 08-113
- Protocol conditions: DDR1 protein 0.5 nM, LANCE Ultra ULight-poly GAT substrate, 2 hours at room temperature, duplicate; read-out: DDR-1 IC50
pIC50: −log10 of the molar value. Counter-ions that a name gives are not always drawn.
Test readout: pIC50

CC1(C)COCCN1C(=O)Cn1nc(C2CN(C(=O)c3cc(N)ncc3F)C2)c2ccccc21 ... 9.22
Nc1cc(C(=O)N2CC(c3nn(CC(=O)N4CCC5(COC5)C4)c4ccccc34)C2)c(F)cn1 ... 7.42
Nc1cc(C(=O)N2CC(c3nn(Cc4cn(Cc5ccccc5)nn4)c4cccc(F)c34)C2)ccn1 [Compound E-35, hydrochloride] ... 7.51
Nc1cc(C(=O)N2CC(c3nn(CC(=O)NC4CCOCC4)c4ccccc34)C2)ccn1 ... 6.30

(1) Nc1cc(C(=O)N2CCC(c3nn(CC(=O)N4CCC[C@H]4C(F)(F)F)c4cccc(F)c34)CC2)c(F)cn1
(2) CC1(c2nn(CC(=O)N3CCC[C@H]3C(F)(F)F)c3ccccc23)CN(C(=O)c2cc(N)ncc2F)C1
(3) Cc1ccc(-c2nc(Cn3nc(C4CN(C(=O)c5ccnc(N)c5)C4)c4c(F)cccc43)no2)nn1
(4) Cc1c(C(=O)N2CC(c3nn(CC(=O)N4CCO[C@@H](C(F)(F)F)C4)c4cc(F)cc(F)c34)C2)ccnc1N [Compound E-51, hydrochloride]
(5) Nc1nccc(C(=O)N2CC(c3nn(CC(=O)N4CCO[C@@H](C(F)(F)F)C4)c4ccccc34)C2)n1
Query: Order field: pIC50 | Direction: descending (largest first) Reply format: the labels, ordered as requested.
Response: 1, 2, 4, 5, 3

====

- System name: DDR1 kinase (Homo sapiens, UniProt Q08345)
- Measurement notes: Evaluation of DDR1 kinase inhibition (LANCE Ultra TR-FRET kinase assay)
- Type: biochemical
- Parameters: purchased Carna Biosciences 08-113
- Protocol conditions: DDR1 protein 0.5 nM, LANCE Ultra ULight-poly GAT substrate, 2 hours at room temperature, duplicate; read-out: DDR-1 IC50
Where a name gives a salt, the structure may show the parent alone.
Test readout: IC50 (nM)

These solved cases illustrate the format of a correct answer.
Nc1cc(C(=O)N2CC(c3nn(CC(=O)N4CCO[C@@H](C(F)(F)F)C4)c4ccccc34)C2)ccn1 ... 1.5
CN(CC(F)(F)F)C(=O)Cn1nc(C2CN(C(=O)c3ccnc(N)n3)C2)c2c(F)cc(F)cc21 ... 45
Cn1nccc1NC(=O)Cn1nc(C2CN(C(=O)c3cc(N)ncc3F)C2)c2ccccc21 ... 47

(A) Nc1cc(C(=O)N2CC(c3nn(CC(=O)N4CCO[C@@H](C(F)(F)F)C4)c4cncc(F)c34)C2)ccn1
(B) O=C(c1cnn2ccsc12)N1CC(c2nn(CC(=O)N3CCC[C@H]3C(F)(F)F)c3cc(F)cc(F)c23)C1
(C) Nc1cc(C(=O)N2CC(c3nn(Cc4noc(C5(C(F)(F)F)CCC5)n4)c4cccc(F)c34)C2)ccn1 [Compound E-146, hydrochloride]
(D) Nc1cc(C(=O)N2CC(c3nn(Cc4cn(CC5CCC5)nn4)c4cccc(F)c34)C2)ccn1 [Compound E-92, hydrochloride]
Query: Order field: IC50 | Direction: descending (largest first) Reply format: the labels, ordered as requested.
Response: D, A, B, C

====

- System name: DDR1 kinase (Homo sapiens, UniProt Q08345)
- Measurement notes: Evaluation of DDR1 kinase inhibition (LANCE Ultra TR-FRET kinase assay)
- Assay type: biochemical
- Design: purchased Carna Biosciences 08-113
- Protocol conditions: DDR1 protein 0.5 nM, LANCE Ultra ULight-poly GAT substrate, 2 hours at room temperature, duplicate; read-out: DDR-1 IC50
Test readout: IC50 (nM)

These solved cases illustrate the format of a correct answer.
CN(CC(F)(F)F)C(=O)Cn1nc(C2CN(C(=O)c3nc(N)ncc3F)C2)c2ccccc21 ... 19
Cc1ccc2c(n1)c(C1CN(C(=O)c3ccnc(N)c3)C1)nn2CC(=O)N1CCC[C@H]1C(F)(F)F ... 7.5
Nc1cc(C(=O)N2CC(c3nn(Cc4noc(-c5ccccc5F)n4)c4cncc(F)c34)C2)ccn1 ... 140
Nc1cc(C(=O)N2CC(c3nn(CC(=O)N4CCC[C@H]4COC(F)(F)F)c4cc(F)cc(F)c34)C2)c(F)cn1 ... 0.5
Nc1cc(C(=O)N2CC(c3cn(CC(=O)N4CCC[C@H]4C(F)(F)F)c4ccccc34)C2)ccn1 ... 6.1
CN(CC(F)(F)F)C(=O)Cn1nc(C2CN(C(=O)c3ccnc(N)c3)C2)c2ccccc21 ... 4.4
Nc1cc(C(=O)N2CC(c3nn(CC(=O)N4CCC[C@H]4C(F)(F)F)c4ccc(F)cc34)C2)ccn1 ... 1.1
Nc1nccc(C(=O)N2CC(c3nn(CC(=O)N4CCO[C@@H](C(F)(F)F)C4)c4cc(F)cc(F)c34)C2)c1F [Compound E-184, p-toluenesulfonate] ... 3

(1) O=C(c1ccc2[nH]ncc2c1)N1CC(c2nn(CC(=O)N3CCC[C@H]3C(F)(F)F)c3cc(F)cc(F)c23)C1
(2) CN(CC(F)(F)F)C(=O)Cn1nc(C2CN(C(=O)c3ccnc(N)c3)C2)c2c(F)cccc21
Query: Which shows the larger IC50 value: 1 or 2 ? Bench note: the answer is the label of the chosen record.
Response: 2

====

- System name: DDR1 kinase (Homo sapiens)
- Measurement notes: Evaluation of DDR1 kinase inhibition (LANCE Ultra TR-FRET kinase assay)
- Type: biochemical
- Design: purchased Carna Biosciences 08-113
- Protocol conditions: DDR1 protein 0.5 nM, LANCE Ultra ULight-poly GAT substrate, 2 hours at room temperature, duplicate; read-out: DDR-1 IC50
Counter-ions that a name gives are not always drawn.
Test readout: IC50 (nM)

Nc1cc(C(=O)N2CC(O)(c3nn(CC(=O)N4CCC[C@H]4C(F)(F)F)c4ccccc34)C2)c(F)cn1 ... 11

(A) Nc1cc(C(=O)N2CC(c3nn(Cc4ccc(C(F)(F)F)cc4)c4cccc(F)c34)C2)ccn1 [Compound E-112, hydrochloride]
(B) Nc1cc(C(=O)N2CC(F)(c3nn(CC(=O)N4CCC[C@H]4C(F)(F)F)c4ccccc34)C2)c(F)cn1
Query: Compare IC50: is it lower for A or for B ? Bench note: the answer is the label of the chosen record.
Response: B
(B: 1.3 nM, A: 3.7 nM)

(I) Nc1cc(C(=O)N2CC(c3nn(CC(=O)N4CCC[C@H]4C(F)(F)F)c4cccnc34)C2)ccn1
(II) Cc1nc(N)sc1C(=O)N1CC(c2nn(CC(=O)N3CCCC3COC(F)(F)F)c3cncc(F)c23)C1 (stereo not shown)
Query: Which shows the larger IC50 value: I or II ? Bench note: the answer is the label of the chosen record.
Response: I

(1) Nc1cc(C(=O)N2CC(c3nn(C(F)C(=O)N4CCC[C@H]4C(F)(F)F)c4cc(F)cc(F)c34)C2)ccn1 (stereo partly shown)
(2) Nc1cc(C(=O)N2CCC(c3nn(CC(=O)N4CCO[C@@H](C(F)(F)F)C4)c4cccc(F)c34)CC2)ccn1
(3) Nc1cc(C(=O)N2CC(c3nn(CC(=O)N4CCc5ccc(Br)cc54)c4cc(F)cc(F)c34)C2)ccn1
Query: Order field: IC50 | Direction: descending (largest first) Reply format: the labels, ordered as requested.
Response: 1, 2, 3
(1: 91 nM, 2: 11 nM, 3: 0.3 nM)

(a) Nc1cc(C(=O)N2CC(c3nn(Cc4nc(C(F)(F)F)no4)c4ccccc34)C2)ccn1
(b) Nc1cc(C(=O)N2CC(c3nn(CC(=O)N4CCC[C@H]4C(F)(F)F)c4ccc(Cl)cc34)C2)ccn1
Query: Which shows the larger IC50 value: a or b ? Bench note: the answer is the label of the chosen record.
Response: a
(a: 13 nM, b: 1.6 nM)
